FYI, the data here is from ChEMBL document CHEMBL1125251.

I'd appreciate it if you could supply selectivity ratio values for the items below.
Assay: Therapeutic Index measured as the ratio of CyD50 (rhino) / ED99 (rhino) values.
Settings: read-out: Therapeutic index 99
Please give the numeric answer without any surrounding text.

Would you kindly share the measured selectivity ratio for COc1cc(O)c2c(=O)c(OC)c(-c3ccc(O)c(O)c3)oc2c1OC ?
10

Data request, read-out selectivity ratio, for COc1c(-c2ccc(O)cc2)oc2cccc(OC)c2c1=O
10

Return reported selectivity ratio; argument: COc1cc(OC)c2c(=O)c(OC)c(-c3ccc(O)cc3)oc2c1
5

selectivity ratio lookup needed for COc1c(-c2ccc(O)cc2)oc2cccc(O)c2c1=O , thanks.
5
